biological target: GLP-1R (Homo sapiens, UniProt P43220); test: GLP-1R activation: cAMP increase in CHO cells stably expressing GLP-1R; type: cell-based; conditions: cAMP increase, CHO cells stably expressing GLP-1R, 10 point dose response, 30 minutes incubation; read-out: EC50
Sequence (P43220 24-463): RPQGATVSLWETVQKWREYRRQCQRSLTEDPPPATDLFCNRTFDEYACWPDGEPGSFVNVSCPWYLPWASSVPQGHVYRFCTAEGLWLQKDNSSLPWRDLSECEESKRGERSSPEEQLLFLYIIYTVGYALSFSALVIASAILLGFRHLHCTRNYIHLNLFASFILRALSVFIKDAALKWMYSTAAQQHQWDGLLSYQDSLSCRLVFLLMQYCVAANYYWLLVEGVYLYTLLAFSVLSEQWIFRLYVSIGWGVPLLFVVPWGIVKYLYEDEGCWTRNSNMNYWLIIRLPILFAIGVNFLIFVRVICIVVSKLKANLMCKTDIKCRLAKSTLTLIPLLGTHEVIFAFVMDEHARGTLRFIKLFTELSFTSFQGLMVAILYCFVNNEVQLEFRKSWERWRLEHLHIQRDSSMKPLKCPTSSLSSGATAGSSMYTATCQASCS
Label condition met when EC50 < 2 nM; otherwise condition not met.

| Molecule | Class Name |
| --- | --- |
| O=C(O)c1ccc2nc(Cc3cc(F)c(-c4ccnc(OCc5ccc(C(F)F)cc5F)n4)cc3F)n(C[C@@H]3CCO3)c2c1 | condition met |
| N#Cc1ccc(COc2cccc(-c3cc(F)c(Cc4nc5ccc(C(=O)O)cc5n4Cc4cnns4)cc3F)n2)c(F)c1 | condition not met |
| COCCn1c(Cc2ccc(-c3cccc(OCc4ccc(C#N)cc4F)n3)cc2F)nc2ccc(C(O)CO)cc21 (racemic) | condition not met |
| N#Cc1ccc(COc2cccc(-c3ccc(Cc4nc5ccc(C(=O)O)cc5n4CCCF)c(F)c3)n2)c(F)c1 | condition not met |
| N#Cc1ccc(COc2cccc(-c3ccc(Cc4nc5ccc(C(=O)O)cc5n4CC4(CF)CCC4)c(F)c3)n2)c(F)c1 | condition not met |
| N#Cc1ccc(COc2nccc(-c3cc(F)c(Cc4nc5ccc(C(=O)O)nc5n4CC4(CF)CC4)cc3F)n2)c(F)c1 | condition met |

Shifting focus to the molecule that follows.
Prompt: Lab log: compare recorded EC50 with 2 nM; is it strictly lower for N#Cc1ccc(COc2ncccc2-c2cc(F)c(Cc3nc4ccc(C(=O)O)cc4n3CC3(CF)CC3)c(F)c2)c(F)c1 ?
Response: condition not met

---

experiment: Microsomal stability, human liver microsomes (predicted hepatic clearance); settings: predicted from in vitro microsomal stability data
Decision: Predicted Hepatic Clearance (Pred. Cl.) >= 8 mL/min/kg yields rule met, all other cases yield rule not met.

Prompt: Decide: Predicted Hepatic Clearance (Pred. Cl.) of CN1CCO[C@H](Cn2c(Cc3cc(F)c(-c4cccc(OCc5ccc(C#N)cc5F)n4)cc3F)nc3ccc(C(=O)O)cc32)C1 [Example 639] >= 8 mL/min/kg?
Response: rule not met

Prompt: Decide: Predicted Hepatic Clearance (Pred. Cl.) of COC1(Cn2c(Cc3cc(F)c(-c4cccc(OCc5ccc(C#N)cc5F)n4)cc3F)nc3ccc(C(=O)O)cc32)CN(C(C)=O)C1 [Example 687] >= 8 mL/min/kg?
Response: rule met

Prompt: Decide: Predicted Hepatic Clearance (Pred. Cl.) of COCCn1c(Cc2ccc(-c3cccc(OCc4ccc(C#N)cc4F)n3)cc2-c2cnn(C(F)F)c2)nc2ccc(C(=O)O)cc21 [Example 190] >= 8 mL/min/kg?
Response: rule not met

Prompt: Decide: Predicted Hepatic Clearance (Pred. Cl.) of N#Cc1ccc(COc2cccc(-c3ccc(Cc4nc5ccc(C(=O)O)cc5n4Cc4ccccc4)c(F)c3)n2)c(F)c1 [Example 531] >= 8 mL/min/kg?
Response: rule not met

---

experiment: Microsomal stability, human liver microsomes (predicted hepatic clearance); details: predicted from in vitro microsomal stability data
Readings of Predicted Hepatic Clearance (Pred. Cl.) for the listed compounds
Response body: numeric value in L/h/kg, unit text excluded.

| Compound | Predicted Hepatic Clearance (Pred. Cl.) [L/h/kg] |
| --- | --- |
| COCCn1c(Cc2ccc(-c3ccc(N)c(OCc4ccc(C#N)cc4F)c3)cc2F)nc2ccc(C(=O)O)cc21 | 0.22 |
| COCCn1c(Cc2cc(F)c(-c3nc(OCc4ccc(C#N)cc4F)ccc3F)cc2F)nc2ccc(C(=O)O)cc21 | 0.315 |
| COCCn1c(Cc2ccc(-c3cccc(OCc4ccc(C#N)cc4F)n3)c(F)c2F)nc2ccc(C(=O)O)cc21 | 0.23 |
| COCCn1c(Cc2ccc(-c3cccc(OCc4ccc(C#N)cc4F)n3)cc2-c2cccc(OC)c2)nc2ccc(C(=O)O)cc21 | 1.05 |
| COC[C@@H](c1ccccc1)n1c(Cc2cc(F)c(-c3cccc(OCc4ccc(C#N)cc4F)n3)cc2F)nc2ccc(C(=O)O)cc21 | 0.13 |

Prompt: Any idea what its Predicted Hepatic Clearance (Pred. Cl.) is? The compound is COCCn1c(Cc2cc(F)c(-c3cccc(OCc4ccc(-c5cc[nH]c(=O)c5)cc4F)n3)cc2F)nc2ccc(C(=O)O)cc21
Response: 0.11
